testedSystem: rat TAAR1 (Rattus norvegicus (Rat), UniProt Q923Y9)
Sequence (Q923Y9 whole entry): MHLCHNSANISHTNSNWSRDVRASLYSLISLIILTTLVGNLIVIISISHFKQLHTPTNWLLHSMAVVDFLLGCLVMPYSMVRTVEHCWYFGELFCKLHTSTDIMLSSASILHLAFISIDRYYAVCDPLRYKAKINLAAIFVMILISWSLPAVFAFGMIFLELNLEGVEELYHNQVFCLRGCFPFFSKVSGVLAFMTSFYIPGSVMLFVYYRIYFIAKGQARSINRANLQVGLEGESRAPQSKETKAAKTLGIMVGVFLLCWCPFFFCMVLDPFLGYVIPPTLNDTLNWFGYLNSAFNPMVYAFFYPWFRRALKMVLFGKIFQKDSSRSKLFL
measurementDescription: Radioligand binding assay on rat TAAR1
conditions: rat TAAR1 (second value of the cell), HEK-293 membranes; read-out: Ki (μM) mouse/rat
Threshold 0.1 µM: Ki strictly smaller gives MET, otherwise NOT MET.

Could you please tell me whether Ki recorded for Fc1cc(C2CNCCO2)ccc1Nc1ncc(C(F)(F)F)cn1 (racemic) [Example 121] is less than 0.1 µM?
MET

What do you have for FC(F)(F)C(Nc1ccc(CCC2CCCNC2)cc1)c1ccc(Cl)cc1 (racemic) [Example 4] ?
MET

What do you have for CCc1cnc(Nc2ccc([C@H]3CNCCO3)cc2F)nc1 [Example 117] ?
MET

What do you have for Brc1ccc(CNc2ccc([C@H]3CNCCO3)cc2)nc1 [Example 27] ?
NOT MET

What do you have for COc1cc(Cl)nc(Nc2ccc([C@@H]3CNCCO3)cc2)n1 [Example 180] ?
MET

What do you have for c1cc([C@H]2CNCCO2)ccc1Nc1ncc(C2CC2)cn1 [Example 17] ?
MET

What do you have for COc1ccnc(Nc2ccc([C@H]3CNCCO3)cc2)c1 [Example 39] ?
NOT MET

What do you have for c1ccc(CCNc2ccc([C@H]3CNCCO3)cc2)cc1 [Example 13] ?
NOT MET

What do you have for c1ccc2nc(Nc3ccc([C@@H]4CNCCO4)cc3)ncc2c1 [Example 177] ?
MET

What do you have for CNC(=O)c1cnc(Nc2ccc([C@H]3CNCCO3)cc2)nc1 [Example 158] ?
NOT MET

What do you have for CCc1cnc(Nc2ccc([C@@H]3CNCCO3)cc2)nc1 [Example 68] ?
MET

What do you have for Fc1cncc(Nc2ccc([C@H]3CNCCO3)cc2)c1 [Example 43] ?
NOT MET

What do you have for CC(C)Oc1cnc(Nc2ccc([C@@H]3CNCCO3)cc2)nc1 [Example 123] ?
MET

What do you have for CS(=O)(=O)c1cnc(Nc2ccc([C@H]3CNCCO3)cc2)nc1 [Example 78] ?
NOT MET

What do you have for O=[N+]([O-])c1cnc(Nc2ccc([C@H]3CNCCO3)cc2)nc1 [Example 75] ?
NOT MET

What do you have for Fc1ncccc1Nc1ccc([C@H]2CNCCO2)cc1 [Example 55] ?
NOT MET

What do you have for c1cc([C@@H]2CNCCO2)ccc1Nc1ncc(C2CC2)cn1 [Example 86] ?
MET

What do you have for Fc1cnc(Nc2ccc([C@@H]3CNCCO3)cc2)nc1C1CC1 [Example 190] ?
MET

What do you have for c1nc(Nc2ccc(C3CNCCO3)cn2)ncc1C1CC1 (racemic) [Example 92] ?
NOT MET

What do you have for Clc1ccc2ncnc(Nc3ccc([C@H]4CNCCO4)cc3)c2c1 [Example 50] ?
MET
